Numbers sourced from the supplement of paper PMC6555819.

tested on: PPARg:RXRa 90nM:30nM, anti-RXR (NR concentration 90 nM, RXRa partner concentration 30 nM); assay: PBM binding z-score (relative to random genomic background probes); higher = stronger binding; sequences stand for … in GC…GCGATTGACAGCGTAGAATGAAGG
Recorded metric: PBM binding z-score
Numbers only.

Query string: What does the data say about its PBM binding z-score? Entry: CAAACTAGGTCCCCGGAAGGTCAAAGTCCGCATG
Result string: 1.63

For each of the sequences below, note its PBM binding z-score.
1. GCTTGTAGATCAAGGTTTAGAAAGACTAAGCTAA
2. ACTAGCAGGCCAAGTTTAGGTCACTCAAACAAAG
3. CCTACTGGGCCATTCAGAGGTCCTTGATCATATG
4. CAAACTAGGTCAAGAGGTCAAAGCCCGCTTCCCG
5. ATCGAAAGGTCGAAGGTGGGTATACCCACCCGAA
6. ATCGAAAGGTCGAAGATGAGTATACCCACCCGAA

Result string:
1. 2.05
2. 0.000314
3. -0.16
4. 8.87
5. 2.77
6. 1.8

For each of the sequences below, note its PBM binding z-score.
1. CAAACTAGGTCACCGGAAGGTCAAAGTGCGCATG
2. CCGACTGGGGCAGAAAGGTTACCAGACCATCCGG
3. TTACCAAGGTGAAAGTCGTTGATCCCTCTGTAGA

Result string:
1. 7.97
2. 2.04
3. 1.12

For each of the sequences below, note its PBM binding z-score.
1. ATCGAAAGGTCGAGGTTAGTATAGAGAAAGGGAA
2. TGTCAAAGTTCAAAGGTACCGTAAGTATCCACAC
3. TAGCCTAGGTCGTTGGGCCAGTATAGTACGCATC

Result string:
2.68
6.89
-0.153

For each of the sequences below, note its PBM binding z-score.
1. CCTACTGGGCCATTCAGAGGTCATGGATCATATG
2. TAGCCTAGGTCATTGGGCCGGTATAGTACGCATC
3. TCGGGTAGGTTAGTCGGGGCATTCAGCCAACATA
4. GCTCGGAGGACAAGGTGAGAGCTTTGTCCGTAGA
5. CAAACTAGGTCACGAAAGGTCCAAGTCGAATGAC
6. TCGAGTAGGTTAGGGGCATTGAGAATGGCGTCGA
7. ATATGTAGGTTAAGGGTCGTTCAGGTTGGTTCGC
8. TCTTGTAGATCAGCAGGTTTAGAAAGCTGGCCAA

Result string:
[3.29, 1.53, 1.22, -0.422, 7.28, 1.51, 11, 1.23]

For each of the sequences below, note its PBM binding z-score.
1. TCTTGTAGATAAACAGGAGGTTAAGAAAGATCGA
2. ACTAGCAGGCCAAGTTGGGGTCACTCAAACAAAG
3. GCTGCTAGGTCAACTGATGGTCAGCCAAAGCTCG
4. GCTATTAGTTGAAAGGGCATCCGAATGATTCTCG
5. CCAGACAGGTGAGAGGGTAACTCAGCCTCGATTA
6. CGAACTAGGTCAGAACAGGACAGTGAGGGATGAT

Result string:
1: 1.89; 2: 1.96; 3: 1.68; 4: 3.96; 5: 2.18; 6: 3.43

For each of the sequences below, note its PBM binding z-score.
1. CCTAGTTGGTGAAGGTCACACACGCTATAGGTAC
2. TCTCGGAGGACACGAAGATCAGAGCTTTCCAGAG
3. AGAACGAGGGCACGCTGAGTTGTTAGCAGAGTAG
4. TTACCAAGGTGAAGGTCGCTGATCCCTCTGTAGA
5. TAGCCTAGGTCATATCGGGCCAGTATACGCTATA
6. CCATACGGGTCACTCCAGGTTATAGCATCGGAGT
7. CGTCCGAGGTCAGAGAGGTCAGTGAATGCCGAGT
8. TGGATGAGGTTATAAGATCAGGGAACGTTGCAAA

Result string:
[1.97, 1.67, 1.16, 3.68, 0.981, 2.68, 4.02, 1.35]

For each of the sequences below, note its PBM binding z-score.
1. AGAATGAGGTTGCCAAAGATCAGGGAAACGCTTG
2. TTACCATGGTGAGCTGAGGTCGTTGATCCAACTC

Result string:
0.435
-0.294

For each of the sequences below, note its PBM binding z-score.
1. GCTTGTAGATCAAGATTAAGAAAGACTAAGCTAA
2. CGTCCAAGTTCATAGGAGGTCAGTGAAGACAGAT
3. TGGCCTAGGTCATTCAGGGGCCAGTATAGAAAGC

Result string:
1: -0.334; 2: 1.47; 3: 1.5
